The measured values listed here are drawn from paper PMC7541926.

- Target Under Test: Saccharomyces cerevisiae α-glucosidase (Saccharomyces cerevisiae, UniProt P53341)
- Sequence (P53341 whole entry): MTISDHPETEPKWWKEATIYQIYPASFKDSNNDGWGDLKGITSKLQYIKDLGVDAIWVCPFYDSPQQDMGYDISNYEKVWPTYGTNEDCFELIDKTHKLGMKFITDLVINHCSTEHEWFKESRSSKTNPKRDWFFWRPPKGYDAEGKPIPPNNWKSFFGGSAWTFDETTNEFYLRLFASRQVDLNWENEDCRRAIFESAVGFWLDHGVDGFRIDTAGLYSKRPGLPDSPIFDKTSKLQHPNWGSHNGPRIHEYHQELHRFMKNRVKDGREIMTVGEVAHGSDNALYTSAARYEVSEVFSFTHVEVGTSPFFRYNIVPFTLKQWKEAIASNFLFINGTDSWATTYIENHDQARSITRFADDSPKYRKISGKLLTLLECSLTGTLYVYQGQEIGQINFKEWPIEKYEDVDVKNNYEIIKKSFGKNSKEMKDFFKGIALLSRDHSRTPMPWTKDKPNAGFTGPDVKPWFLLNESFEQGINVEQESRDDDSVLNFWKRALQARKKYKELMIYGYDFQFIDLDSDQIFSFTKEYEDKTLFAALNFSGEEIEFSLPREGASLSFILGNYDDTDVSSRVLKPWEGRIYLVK

- Compound: "Oc1ccc(-c2[o+]c3cc(O)cc(O)c3cc2O)cc1 [Pelargonidin, pelargonidin chloride]"
  Target Under Test: "Saccharomyces cerevisiae α-glucosidase (Saccharomyces cerevisiae, UniProt P53341)"
  IC50: "50.3 µM"
- Compound: "COc1cc(-c2[o+]c3cc(O)cc(O)c3cc2O)cc(OC)c1O [Malvidin, malvidin chloride]"
  Target Under Test: "Saccharomyces cerevisiae α-glucosidase (Saccharomyces cerevisiae, UniProt P53341)"
  IC50: "54.7 µM"
- Compound: "COc1cc(-c2[o+]c3cc(O)cc(O)c3cc2O)cc(O)c1O [Petunidin, petunidin chloride]"
  Target Under Test: "Saccharomyces cerevisiae α-glucosidase (Saccharomyces cerevisiae, UniProt P53341)"
  IC50: "30.8 µM"
- Compound: "Oc1cc(O)c2cc(O)c(-c3ccc(O)c(O)c3)[o+]c2c1 [Cyanidin, cyanidin chloride]"
  Target Under Test: "Saccharomyces cerevisiae α-glucosidase (Saccharomyces cerevisiae, UniProt P53341)"
  IC50: "17 µM"
- Compound: "Oc1cc(O)c2cc(O)c(-c3cc(O)c(O)c(O)c3)[o+]c2c1 [Delphinidin, delphinidin chloride]"
  Target Under Test: "Saccharomyces cerevisiae α-glucosidase (Saccharomyces cerevisiae, UniProt P53341)"
  IC50: "4.11 µM"

====

- Target Under Test: Saccharomyces cerevisiae α-glucosidase (Saccharomyces cerevisiae, UniProt P53341)
- Measurement Notes: Enzyme kinetics of α-glucosidase inhibitory activity
- Applied Conditions: Lineweaver-Burk double reciprocal plot

- Compound: "C[C@H]1O[C@H](O[C@H]2[C@H](O)[C@@H](O)[C@@H](O[C@H]3[C@H](O)[C@@H](O)C(O)O[C@@H]3CO)O[C@@H]2CO)[C@H](O)[C@@H](O)[C@@H]1N[C@H]1C=C(CO)[C@@H](O)[C@H](O)[C@H]1O (stereo partly drawn) [Acarbose, acarbose, reference compound]"
  Mode of inhibition: "Competitive"
- Compound: "COc1cc(-c2[o+]c3cc(O)cc(O)c3cc2O)cc(O)c1O [Petunidin, petunidin chloride]"
  Mode of inhibition: "Competitive"
